Biological target: HIV-1 nucleocapsid protein NC (wild type) (HIV-1 pNL4-3, UniProt P12493 378-432)
Assay: tryptophan fluorescence quenching
Readout type: pKd
One number for each entry, as −log10 of the molar value.

*Q* I'd like to know its pKd. The binder in question is TGTGTGTG (ssDNA) [(TG)4]
*A* 8.33
